For each record, write down the corresponding recombinant UMI read abundance (log10).
Experiment: recombinant UMI read abundance after kanamycin selection (control-corrected) (log10(CPM+1)); higher = more efficient recombination; extreme values may be limits of the assay; sequences stand for … in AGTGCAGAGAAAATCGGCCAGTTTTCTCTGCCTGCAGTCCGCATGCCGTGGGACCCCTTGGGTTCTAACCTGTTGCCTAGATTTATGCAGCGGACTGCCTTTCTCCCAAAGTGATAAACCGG…AGGTTGGTTTCACT; site = the 11-nt donor;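 note: IS621 bridge recombinase in Escherichia coli cells against a fixed T5 target plasmid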
Numbers only.

Answered examples (5):
In [3]: df
Out[3]:
                           ordered_residues  numeric_readout
0  ATCTATACATGGACCGGTTTTCCCGGTAATCCGTATTTGAC (site ATCTATACTGC)                0
1  TCGCCAGCATGGACCGGTTTTCCCGGTAATCCGTATTTGTG (site TCGCCAGCTCA)           0.0192
2  CTCTTTGCATGGACCGGTTTTCCCGGTAATCCGTATTTGAC (site CTCTTTGCTGT)            0.503
3  TACTTGTCATGGACCGGTTTTCCCGGTAATCCGTATTTGCT (site TACTTGACTAG)                0
4  TTAGCAGCATGGACCGGTTTTCCCGGTAATCCGTATTTGTG (site TTAGCTGCTCA)          0.00315

Your task in this section: give recombinant UMI read abundance (log10) for each listed record.
1. GGGAGTCCATGGACCGGTTTTCCCGGTAATCCGTATTTGTT (site CGGAATCCTAA)
2. GGCAGAGCATGGACCGGTTTTCCCGGTAATCCGTATTTGCC (site GGCAGAGCTGG)
3. TAGAAGACATGGACCGGTTTTCCCGGTAATCCGTATTTGCA (site TAGAACACTTG)
4. CAATGCGCATGGACCGGTTTTCCCGGTAATCCGTATTTGAA (site CAATGCGCTTT)
5. CGCCTAGCATGGACCGGTTTTCCCGGTAATCCGTATTTGTC (site TTGAATACTAG)
6. TTAATTTCATGGACCGGTTTTCCCGGTAATCCGTATTTGAA (site TTAATTTCTTT)
7. CAAGCGTCATGGACCGGTTTTCCCGGTAATCCGTATTTGTG (site CAAGCGGCTCA)

[0.00442, 0, 0.985, 1.9, 0, 0, 0.00505]

Give recombinant UMI read abundance (log10) for all sequences that follow.
1. CACGGCCCATGGACCGGTTTTCCCGGTAATCCGTATTTGTT (site AACGGCCCTAA)
2. CCCTTCTCATGGACCGGTTTTCCCGGTAATCCGTATTTGGC (site CCCTTCTCTGC)
3. ATTGATACATGGACCGGTTTTCCCGGTAATCCGTATTTGGT (site ATTGAAACTAC)
4. ACTAGAACATGGACCGGTTTTCCCGGTAATCCGTATTTGTG (site ACTAGAACTCG)
5. AGGTCTACATGGACCGGTTTTCCCGGTAATCCGTATTTGAC (site AGGCCTACTGT)
6. TCGCTGTCATGGACCGGTTTTCCCGGTAATCCGTATTTGGA (site TCGCTGTCTTC)

0.0126
1.71
0.445
0.285
2.1
1.34
